assay: blocks MITF activity, primary screen, MITF inhibitor project, cell-based, luminescence (AID 2240); settings: TRPM1 promoter luciferase, 24 h, stronger effect = higher value, concentration not given here;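 also: human melanocyte line stably carrying TRPM1 promoter luciferase reporter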
Hit rate of the full screen: of about 37,000 compounds, about 100 (0.27%) were called active. The full list was thinned out, with actives kept by preference.
Recorded inhibition, one value per entry.
Report the figure in % without appending any unit label.

* Cc1noc(C)c1NC(=O)Nc1ccc2c(c1)C(=O)N([C@@H](C)CO)C[C@@H](C)[C@H](CN(C)Cc1ccc(C(F)(F)F)cc1)O2 | -0.382
* O=[N+]([O-])c1ccccc1-c1ccc(CN2CCN3CCCC3C2C2CCCCC2)o1 (configuration not stated) | -7.52
* C[C@@H]1CN([C@H](C)CO)C(=O)Cc2cc(NC(=O)Nc3ccc4c(c3)OCO4)ccc2O[C@@H]1CN(C)C(=O)Nc1ccccc1 | 8.24
* CC(C)(O)C(O)COc1c2occc2cc2ccc(=O)oc12 (configuration not stated) | -25
* COc1ccc(NC(=O)Nc2ccc3c(c2)CC(=O)N([C@@H](C)CO)C[C@@H](C)[C@@H](CN(C)Cc2ccc(C(F)(F)F)cc2)O3)cc1 | 40.7
* O=C(O)c1cccc(S(=O)(=O)Nc2ccc(O)cc2Sc2nc3ccccc3s2)c1 | 7.04

Query: Tell me the measured inhibition of C[C@@H]1CN([C@H](C)CO)C(=O)c2cccc(NC(=O)Nc3ccc4c(c3)OCO4)c2O[C@H]1CN(C)C(=O)Nc1ccc(F)cc1 , please.
Reply: 7.91

Query: Tell me the measured inhibition of CN(CC(=O)Nc1ccc(F)cc1)S(=O)(=O)c1ccccc1 , please.
Reply: -37.2

Query: Tell me the measured inhibition of COc1ccc(C)cc1NC(=O)CSc1nc(SC)ns1 , please.
Reply: 32.4

Query: Tell me the measured inhibition of Cc1ccc(C)c(NC(=O)CSc2nc(C)nc3sc(C)c(C)c23)c1 , please.
Reply: 3.61

Query: Tell me the measured inhibition of COc1ccc(CN(C)C[C@@H]2Oc3ccc(NC(=O)Nc4ccc(OC)cc4)cc3C(=O)N([C@H](C)CO)C[C@H]2C)cc1 , please.
Reply: -5.96

Query: Tell me the measured inhibition of Cc1ccc(C)c(NC(=O)CCC(=O)O)c1 , please.
Reply: -5.62

* * *

assay: blocks MITF activity, primary screen, MITF inhibitor project, cell-based, luminescence (AID 2240); details: TRPM1 promoter luciferase, 24 h, stronger effect = higher value, concentration not given here;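 also: human melanocyte line stably carrying TRPM1 promoter luciferase reporter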
Among all 37,000 compounds or so, about 100 (0.27%) were called active. This is one part of a sample in which actives are shown more often than they occur.
Recorded inhibition, one value per entry.
Report the figure in % without appending any unit label.

• Cc1ccc(-c2nnc(Nc3ccc(C(=O)N(C)C)cc3)c3ccccc23)cc1S(N)(=O)=O = -20.2

Query: Tell me the measured inhibition of O=C(CSc1nnc(-c2ccccc2)n1-c1ccccc1)c1cccc([N+](=O)[O-])c1 , please.
Reply: 5.69

Query: Tell me the measured inhibition of COc1ccc(NC(=O)CSC2CC(=O)N(c3ccc(F)cc3)C2=O)cc1 (stereo not given) , please.
Reply: -4.35

Query: Tell me the measured inhibition of Cc1ccc(-n2c(SCC(=O)Nc3ccccc3F)nnc2-c2ccccc2)cc1C , please.
Reply: 10.1

Query: Tell me the measured inhibition of O=C(CCCN1C(=O)c2ccccc2C1=O)Nc1cccc2c1CCCC2 , please.
Reply: -8.57

* * *

assay: blocks MITF activity, primary screen, MITF inhibitor project, cell-based, luminescence (AID 2240); details: TRPM1 promoter luciferase, 24 h, stronger effect = higher value, concentration not given here;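 also: human melanocyte line stably carrying TRPM1 promoter luciferase reporter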
Screen size: about 37,000 compounds; about 100 (0.27%) were called active. Only a selection was taken, and actives are over-represented in it overall.
REPORTED ENDPOINT: inhibition (%)
Report the figure in % without appending any unit label.

Consider the following illustrative entries.
- C[C@H](CO)N1C[C@H](C)[C@H](CN(C)C(=O)Nc2ccc(C(F)(F)F)cc2)Oc2ccc(NC(=O)Nc3ccccc3)cc2C1=O: 43
- C[C@@H]1CCCCO[C@@H](CN(C)C(=O)Nc2cccc3ccccc23)[C@@H](C)CN([C@H](C)CO)C(=O)c2cc(NS(C)(=O)=O)ccc2O1: -18.2
- Cc1cc(C)c(NC(=O)CSc2nnc(-c3ccccc3)n2-c2ccc(F)cc2)c(C)c1: 15.6
- COc1ccc(S(=O)(=O)Nc2ccc3c(c2)CC(=O)N([C@H](C)CO)C[C@H](C)[C@H](CN(C)C(=O)Nc2ccccc2)O3)cc1: -16.9
- C[C@@H]1CN([C@@H](C)CO)C(=O)c2cc(NS(=O)(=O)c3ccc(F)cc3)ccc2O[C@@H]1CN(C)C(=O)NC1CCCCC1: 1.15

Query: Tell me the measured inhibition of O=C1Cc2ccc(F)cc2CC1C1=Cc2ccc(F)cc2CC1 (stereo not given) , please.
Reply: 5.98

Query: Tell me the measured inhibition of Cc1ccc(-c2nnc(SCC(=O)Nc3ccccc3OC(F)F)o2)cc1 , please.
Reply: -24.6

* * *

assay: blocks MITF activity, primary screen, MITF inhibitor project, cell-based, luminescence (AID 2240); details: TRPM1 promoter luciferase, 24 h, stronger effect = higher value, concentration not given here;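 also: human melanocyte line stably carrying TRPM1 promoter luciferase reporter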
The whole screen tested about 37,000 compounds, of which about 100 (0.27%) were called active. This is one part of a sample in which actives are shown more often than they occur.
REPORTED ENDPOINT: inhibition (%)
Report the figure in % without appending any unit label.

Consider the following illustrative entries.
• C[C@H]1CN([C@@H](C)CO)C(=O)c2cc(N(C)C)ccc2O[C@@H]1CN(C)Cc1ccccc1 = -14.1
• Cc1ccc2oc3c(c(=O)c2c1)C(c1ccc([N+](=O)[O-])cc1)N(CCCN1CCOCC1)C3=O (configuration not stated) = -26.1
• O=C1c2ccccc2S(=O)c2ccccc2S(=O)(=O)N1Cc1ccccc1 (configuration not stated) = 46.6
• C[C@@H]1CCCCO[C@H](CN(C)C(=O)NC2CCCCC2)[C@@H](C)CN([C@H](C)CO)C(=O)c2cc(NS(=O)(=O)c3ccc(F)cc3)ccc2O1 = 0.476
• C[C@H]1CN([C@@H](C)CO)C(=O)Cc2cc(NC(=O)NC3CCCCC3)ccc2O[C@H]1CN(C)S(=O)(=O)c1cccs1 = 6.16
• C[C@H](CO)N1C[C@H](C)[C@H](CN(C)S(=O)(=O)c2cn(C)cn2)Oc2c(NC(=O)c3ccc(-c4nccs4)cc3)cccc2C1=O = -4.22

Lab note: next molecule to report on.
Query: Tell me the measured inhibition of C[C@H](CO)N1C[C@H](C)[C@@H](CN(C)Cc2ccc(C(F)(F)F)cc2)Oc2ccc(NC(=O)CCN3CCOCC3)cc2C1=O , please.
Reply: -9.07

* * *

assay: blocks MITF activity, primary screen, MITF inhibitor project, cell-based, luminescence (AID 2240); settings: TRPM1 promoter luciferase, 24 h, stronger effect = higher value, concentration not given here;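 also: human melanocyte line stably carrying TRPM1 promoter luciferase reporter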
The campaign covered roughly 37,000 compounds. About 100 (0.27%) were called active. The sample holds actives, similar compounds and a random draw of the others, so the mix is not that of the screen.
Recorded inhibition, one value per entry.
Report the figure in % without appending any unit label.

Consider the following illustrative entries.
- C[C@@H]1CN([C@H](C)CO)C(=O)c2cc(NC(=O)Nc3ccccc3)ccc2O[C@@H]1CN(C)Cc1ccc(Cl)c(Cl)c1: 34.3
- COc1ccc(S(=O)(=O)Nc2cccc3c2O[C@H](CN(C)C(=O)Nc2cccc4ccccc24)[C@H](C)CN([C@@H](C)CO)C3=O)cc1: 4.99

Query: Tell me the measured inhibition of O=C(CCn1nc(-c2ccc(Cl)cc2)c2ccccc2c1=O)Nc1cccc(C(F)(F)F)c1 , please.
Reply: 4.42

Query: Tell me the measured inhibition of Cc1cc([N+](=O)[O-])nn1CC(=O)NC(C)C , please.
Reply: 8.94

Query: Tell me the measured inhibition of CC(C)NC(=O)Nc1ccc2c(c1)C(=O)N([C@H](C)CO)C[C@H](C)[C@@H](CN(C)CC1CCCCC1)OCCCC[C@@H](C)O2 , please.
Reply: 0.663

* * *

test: blocks MITF activity, primary screen, MITF inhibitor project, cell-based, luminescence (AID 2240); details: TRPM1 promoter luciferase, 24 h, stronger effect = higher value, concentration not given here;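 also: human melanocyte line stably carrying TRPM1 promoter luciferase reporter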
Screen size: about 37,000 compounds; about 100 (0.27%) were called active. The entries come from a sample that favours actives as a whole.
Recorded inhibition, one value per entry.
Report the figure in % without appending any unit label.

Consider the following illustrative entries.
• Cc1cccc(NC(=O)CSc2nc3c(cc2C#N)CCCCC3)c1 = 0.0416
• COc1ccc(NC(=O)CN(C)S(=O)(=O)c2ccccc2)cc1OC = -9.83
• CC(=O)Nc1nc2ccccc2s1 = -10.3
• C[C@H]1CN([C@@H](C)CO)C(=O)Cc2cc(NC(=O)Nc3ccc(F)cc3)ccc2O[C@H]1CN(C)C(=O)Nc1ccc(C(F)(F)F)cc1 = -15.8
• O=C(c1nc2ncccn2n1)N(Cc1ccccc1)Cc1ccccc1 = 3.11

Query: Tell me the measured inhibition of COc1ccc(NC(=O)Nc2ccc3c(c2)CC(=O)N([C@@H](C)CO)C[C@H](C)[C@@H](CN(C)CC2CCCCC2)O3)cc1 , please.
Reply: -0.386

Query: Tell me the measured inhibition of O=C(CN1CCOCC1)Nc1sc2c(c1C(=O)Nc1ccc(Br)cc1)CCC2 , please.
Reply: 53

Query: Tell me the measured inhibition of C[C@@H]1CN([C@@H](C)CO)C(=O)Cc2cc(NC(=O)Cc3ccccc3)ccc2O[C@@H]1CN(C)Cc1ccc(Oc2ccccc2)cc1 , please.
Reply: 41.7

Query: Tell me the measured inhibition of C[C@@H]1CN([C@@H](C)CO)C(=O)c2cccc(NC(=O)c3nc4ccccc4s3)c2O[C@@H]1CN(C)Cc1ccc(Cl)c(Cl)c1 , please.
Reply: 10.3

Query: Tell me the measured inhibition of C[C@@H]1CN([C@@H](C)CO)C(=O)c2cccc(NS(=O)(=O)c3cn(C)cn3)c2O[C@H]1CN(C)Cc1ccc(Cl)c(Cl)c1 , please.
Reply: -17

Query: Tell me the measured inhibition of C[C@@H]1CN([C@H](C)CO)C(=O)c2cccc(NS(=O)(=O)c3ccc(Cl)cc3)c2O[C@@H]1CN(C)C(=O)Nc1cccc2ccccc12 , please.
Reply: 38.8

Query: Tell me the measured inhibition of O=C(NCCN1CCCCC1)Nc1cccc2ccccc12 , please.
Reply: 5.31

Query: Tell me the measured inhibition of C[C@@H]1CN([C@H](C)CO)C(=O)c2cccc(N(C)C)c2O[C@H]1CN(C)S(=O)(=O)c1cn(C)cn1 , please.
Reply: 8.04

Query: Tell me the measured inhibition of c1ccc(Cn2c3ccccc3c3nnc(SCc4ccc5nonc5c4)nc32)cc1 , please.
Reply: 20.6

Query: Tell me the measured inhibition of COc1ccc(-c2cnc3c(-c4ccsc4)cnn3c2)cc1 , please.
Reply: 26.7

Query: Tell me the measured inhibition of O=C(NCCCn1ccnc1)c1cc2c(s1)CCCC2 , please.
Reply: 1.51

Query: Tell me the measured inhibition of C=C1C[C@@]23CC[C@@H]4[C@](C)(CO)CCC[C@@]4(C)[C@@H]2CC[C@@H]1C3 , please.
Reply: -32.7
